# target.system: mouse TMEM16A (mTMEM16A, anoctamin 1) (Mus musculus, UniProt Q8BHY3)
# Construct: gene Ano1
# Sequence (Q8BHY3 whole entry): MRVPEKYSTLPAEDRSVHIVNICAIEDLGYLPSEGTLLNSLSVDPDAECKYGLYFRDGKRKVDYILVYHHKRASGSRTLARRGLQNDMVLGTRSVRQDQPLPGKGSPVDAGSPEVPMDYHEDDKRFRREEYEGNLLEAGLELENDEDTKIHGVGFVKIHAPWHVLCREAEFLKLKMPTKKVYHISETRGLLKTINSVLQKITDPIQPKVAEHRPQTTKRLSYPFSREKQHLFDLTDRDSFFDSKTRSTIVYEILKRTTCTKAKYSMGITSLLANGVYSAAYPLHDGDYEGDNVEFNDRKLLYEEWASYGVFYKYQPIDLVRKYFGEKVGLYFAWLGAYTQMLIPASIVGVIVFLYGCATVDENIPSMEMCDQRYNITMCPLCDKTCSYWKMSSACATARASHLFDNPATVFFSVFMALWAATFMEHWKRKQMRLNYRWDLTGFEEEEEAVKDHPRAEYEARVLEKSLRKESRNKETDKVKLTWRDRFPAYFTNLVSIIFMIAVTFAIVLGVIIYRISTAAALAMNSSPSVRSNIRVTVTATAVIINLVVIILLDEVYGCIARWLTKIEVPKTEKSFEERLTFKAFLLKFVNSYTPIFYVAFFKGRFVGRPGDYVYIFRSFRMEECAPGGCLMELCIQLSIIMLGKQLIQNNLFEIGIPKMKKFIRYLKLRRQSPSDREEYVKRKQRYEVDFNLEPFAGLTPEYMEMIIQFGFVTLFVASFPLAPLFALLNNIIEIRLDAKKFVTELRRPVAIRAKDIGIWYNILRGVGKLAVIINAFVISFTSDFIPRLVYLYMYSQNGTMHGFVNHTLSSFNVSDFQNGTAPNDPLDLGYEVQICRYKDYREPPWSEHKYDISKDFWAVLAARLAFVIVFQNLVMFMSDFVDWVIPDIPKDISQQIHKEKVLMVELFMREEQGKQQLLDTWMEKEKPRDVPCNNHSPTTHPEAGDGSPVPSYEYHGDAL
# protocol: whole-cell patch-clamp in transfected HEK293T cells, +[…] mV
# Format: cell-based
parameter: pIC50
Please treat pIC50 as minus the base-10 logarithm of the molar concentration.

Please provide the recorded pIC50 for O=C1C[C@@H](c2ccc(O)cc2)Oc2cc(O)ccc21 , tested on mouse TMEM16A (mTMEM16A, anoctamin 1) (Mus musculus, UniProt Q8BHY3). 4.67

* * *

# target.system: human TMEM16A (hTMEM16A, anoctamin 1) (Homo sapiens, UniProt Q5XXA6)
# Construct: gene ANO1; untagged complete CDS
# Sequence (Q5XXA6 1-986): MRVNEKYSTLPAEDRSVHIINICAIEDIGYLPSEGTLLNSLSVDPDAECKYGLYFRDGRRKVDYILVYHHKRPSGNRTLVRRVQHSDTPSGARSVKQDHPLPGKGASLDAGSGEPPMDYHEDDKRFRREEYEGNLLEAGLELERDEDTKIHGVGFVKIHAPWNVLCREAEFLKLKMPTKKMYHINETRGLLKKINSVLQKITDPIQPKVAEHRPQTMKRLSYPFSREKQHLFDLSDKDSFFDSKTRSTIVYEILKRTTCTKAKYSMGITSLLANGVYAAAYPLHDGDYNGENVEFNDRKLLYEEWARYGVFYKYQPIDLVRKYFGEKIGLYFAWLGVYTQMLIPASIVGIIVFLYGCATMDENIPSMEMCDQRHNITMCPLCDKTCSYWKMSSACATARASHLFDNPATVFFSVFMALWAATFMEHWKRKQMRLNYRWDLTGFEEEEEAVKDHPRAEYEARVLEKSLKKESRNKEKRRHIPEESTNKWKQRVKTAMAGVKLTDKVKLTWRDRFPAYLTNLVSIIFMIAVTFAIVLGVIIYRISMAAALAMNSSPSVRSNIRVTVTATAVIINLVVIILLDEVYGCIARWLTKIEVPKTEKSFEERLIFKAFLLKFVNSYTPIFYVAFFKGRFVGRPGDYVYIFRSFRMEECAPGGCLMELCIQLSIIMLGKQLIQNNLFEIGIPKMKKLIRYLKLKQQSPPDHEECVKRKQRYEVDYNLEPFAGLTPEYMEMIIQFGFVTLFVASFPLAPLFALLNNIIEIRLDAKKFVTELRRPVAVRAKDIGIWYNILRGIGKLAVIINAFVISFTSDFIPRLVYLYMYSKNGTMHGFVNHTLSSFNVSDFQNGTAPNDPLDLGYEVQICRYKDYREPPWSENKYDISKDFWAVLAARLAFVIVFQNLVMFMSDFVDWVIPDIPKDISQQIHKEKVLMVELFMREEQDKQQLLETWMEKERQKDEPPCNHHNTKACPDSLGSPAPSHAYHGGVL
# protocol: whole-cell patch-clamp in transfected HEK293T cells, +[…] mV
# Format: cell-based
parameter: IC50
Hey, just the number and the unit after it is fine.

Look up IC50: O=C1C[C@@H](c2ccc(O)cc2)Oc2cc(O)ccc21 12.9 µM

* * *

# target.system: human TMEM16A (hTMEM16A, anoctamin 1) (Homo sapiens)
# Construct: gene ANO1; untagged complete CDS
# protocol: whole-cell patch-clamp in transfected HEK293T cells, +[…] mV
# Type: cell-based
# condition.notes: read-out: IC50
parameter: IC50 (µM)
Write the answer as a number in µM, unit excluded.

Look up IC50: O=C1c2ccc(O)cc2OCC1c1ccc(O)cc1 (stereo not shown) [dihydrodaidzein] 251
